Values compiled from ChEMBL document CHEMBL5550133.

Target: G-protein coupled bile acid receptor 1 (Mus musculus)
Sequence (Q80SS6 whole entry): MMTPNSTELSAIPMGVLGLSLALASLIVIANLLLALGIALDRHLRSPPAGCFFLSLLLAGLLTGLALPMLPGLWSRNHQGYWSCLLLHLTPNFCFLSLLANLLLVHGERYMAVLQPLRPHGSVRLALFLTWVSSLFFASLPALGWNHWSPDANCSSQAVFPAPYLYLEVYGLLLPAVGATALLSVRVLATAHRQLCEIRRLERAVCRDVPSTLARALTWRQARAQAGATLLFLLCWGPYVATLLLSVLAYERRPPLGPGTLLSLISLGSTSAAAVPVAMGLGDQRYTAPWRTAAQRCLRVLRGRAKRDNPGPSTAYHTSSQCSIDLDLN
Assay: Agonist activity at mouse TGR5 receptor
Format: functional
Test Readout: EC50 (nM)

- Molecule: "COc1cc(-n2c(N(C)c3ccc(OC)c(OC)c3)cnc2SCc2c(F)cc(OCCCS(=O)(=O)O)cc2F)ccc1F"
  Numeric Readout: 0.5
- Molecule: "CN(Cc1cnccc1-c1ccccc1F)C(C#N)c1cc(C(F)(F)F)cc(C(F)(F)F)c1 (centres undefined)"
  Numeric Readout: 150
- Molecule: "O=C(c1cccnc1Oc1cc(Cl)ccc1Cl)N1CCN(C2COC2)c2ccccc21"
  Numeric Readout: 520
- Molecule: "Fc1cccc(F)c1-c1ccncc1CN1C(c2ccco2)=NO[C@@H]1c1cc(C(F)(F)F)cc(C(F)(F)F)c1Cl"
  Numeric Readout: 249

* * *

Biological target: G-protein coupled bile acid receptor 1 (Homo sapiens)
Assay: Agonist activity at TGR5 (unknown origin)
Assay type: functional

- Item Smiles: "CO[C@H]1C[C@H]2[C@@H]([C@H](OC)C[C@@H]3C[C@H](O)CC[C@@]32C)[C@@H]2CC[C@H]([C@H](C)CCC(=O)N3CCCC3)[C@@]12C"
  EC50 (µM): 0.15

* * *

Experiment: Clearance in human liver microsomes
Format: ADME, Microsome
Settings: read-out: CLH
Catalogue of CLint scaled values
Test Readout: CLint scaled (mL/min/kg)

- Item Smiles: "O=C(c1cccnc1Oc1cc(Cl)ccc1Cl)N1CCN(C2COC2)c2ccccc21"
  Numeric Readout: 578
- Item Smiles: "O=C(Nc1nnn[nH]1)c1cc(Cl)c(Oc2ncccc2C(=O)N2CCN(C3CC3)c3ccccc32)cc1Cl"
  Numeric Readout: 56

* * *

Molecular target: G-protein coupled bile acid receptor 1 (Homo sapiens, UniProt Q8TDU6)
Assay: Agonist activity at human TGR5
Type: functional
pEC50: −log10 of the molar value.

- Compound: "CN(Cc1cnccc1-c1ccccc1F)C(C#N)c1cc(C(F)(F)F)cc(C(F)(F)F)c1 (stereo unspecified)"
  pEC50: 7.46

* * *

Target: G-protein coupled bile acid receptor 1 (Homo sapiens, UniProt Q8TDU6)
Sequence (Q8TDU6 whole entry): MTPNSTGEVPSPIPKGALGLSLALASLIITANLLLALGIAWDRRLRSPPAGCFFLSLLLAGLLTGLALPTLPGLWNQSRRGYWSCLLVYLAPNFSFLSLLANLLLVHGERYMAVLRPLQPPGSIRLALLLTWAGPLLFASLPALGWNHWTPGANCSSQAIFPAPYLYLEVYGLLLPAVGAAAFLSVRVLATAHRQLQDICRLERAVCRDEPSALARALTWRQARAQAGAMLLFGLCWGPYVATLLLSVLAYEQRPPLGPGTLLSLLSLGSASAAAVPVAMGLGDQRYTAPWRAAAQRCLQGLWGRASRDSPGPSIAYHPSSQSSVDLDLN
Test: Agonist activity at TGR5 in HEK293 cells
Type: functional, cell-based
Test Readout: EC50

- Item Smiles: "CC(C)[C@@H](CO)NC(=O)CC[C@@H](C)[C@H]1CC[C@H]2[C@@H]3[C@@H](OC=O)C[C@@H]4C[C@H](OC=O)CC[C@]4(C)[C@H]3CC[C@]12C"
  Result: "110 nM"

* * *

Target: G-protein coupled bile acid receptor 1 (Homo sapiens, UniProt Q8TDU6)
Test: Agonist activity at TGR5 receptor in human NCI-H716 cells assessed as activation of intracellular cAMP production incubated for 1 hr by TR-FRET assay
Type: functional, cell-based
pEC50: −log10 of the molar value.
Test Readout: pEC50

- Compound: "COc1ccc(S(=O)(=O)N2CCCN(S(=O)(=O)c3ccc(OC)c(OC)c3)CC2)cc1OC [SB-756050]"
  Test Readout: "pEC50"
  Numeric Readout: 5.89

* * *

Test: Oral bioavailability in mouse at 2 mg/kg
Assay type: ADME, organism-based
Details: in vivo
Test Readout: bioavailability (%)

- Compound: "Cc1cc(/C(C[C@H](c2ccc(C3CCC(C(=O)O)CC3)cc2)c2ccccc2C)=N\\O)ccn1 (stereo partly specified)"
  Display Unit: "%"
  Numeric Readout: 100

* * *

Assay: Aqueous solubility of compound
Type: physicochemical
Conditions: aqueous (not further specified)

- Item Smiles: "O=C(c1cccnc1Oc1cccc(C(F)(F)F)c1)N1CCCc2ccccc21"
  Display Unit: "µg/mL"
  solubility: 1

* * *

Catalogue of EC50 values
Molecular target: UniProtKB Q8TDU6
Assay: Agonist activity at TGR5 (unknown origin) expressed in HEK293 cells
Format: functional, cell-based
Test Readout: EC50 (nM)

- Item Smiles: "O=C(Nc1nnn[nH]1)c1cc(Cl)c(Oc2ncccc2C(=O)N2CCN(C3CC3)c3ccccc32)cc1Cl"
  Test Readout: "EC50"
  Numeric Readout: 70
- Item Smiles: "O=C(c1cccnc1Oc1cc(Cl)ccc1Cl)N1CCN(C2COC2)c2ccccc21"
  Test Readout: "EC50"
  Numeric Readout: 10

* * *

Target: G-protein coupled bile acid receptor 1 (Mus musculus)
Experiment: Agonist activity at mouse TGR5 receptor expressed in HEK293 cells assessed as activation of intracellular cAMP production incubated for 2 hrs by luciferase reporter gene assay
Type: functional, cell-based
pEC50: −log10 of the molar value.

- Item Smiles: "CN(CC[N+](C)(C)C)C(=O)CCc1cc(Cl)c(Oc2ccsc2C(=O)N2CCSc3ccccc32)cc1Cl"
  Target Or System: "G-protein coupled bile acid receptor 1 (Mus musculus)"
  pEC50: 7.13
